The following compounds have recorded pIC50 on UniProt:P24557.
Sequence (P24557 whole entry): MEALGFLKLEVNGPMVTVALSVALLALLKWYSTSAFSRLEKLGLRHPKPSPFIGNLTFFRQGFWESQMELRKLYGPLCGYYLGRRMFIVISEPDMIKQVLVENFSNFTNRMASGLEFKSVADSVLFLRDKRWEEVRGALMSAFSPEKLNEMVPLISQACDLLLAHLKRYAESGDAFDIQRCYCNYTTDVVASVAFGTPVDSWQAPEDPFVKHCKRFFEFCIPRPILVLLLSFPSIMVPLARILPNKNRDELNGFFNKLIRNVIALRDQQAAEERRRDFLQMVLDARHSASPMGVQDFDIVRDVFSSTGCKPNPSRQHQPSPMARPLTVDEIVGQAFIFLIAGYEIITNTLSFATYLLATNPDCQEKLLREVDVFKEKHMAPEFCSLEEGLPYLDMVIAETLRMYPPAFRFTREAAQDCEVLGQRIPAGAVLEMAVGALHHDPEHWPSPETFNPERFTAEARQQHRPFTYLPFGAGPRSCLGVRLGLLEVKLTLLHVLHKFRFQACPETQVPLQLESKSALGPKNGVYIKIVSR
Please note pIC50 is a logarithmic value: minus log10 of concentration in mol/L. Answer with that number alone.

• O=C(O)C1=Cc2sc(Cn3ccnc3)cc2CC1 [IMITRODAST] = 8.22

Now for another entry.
pIC50 for UniProt:P24557 with input O=C(O)C1CCc2cc(Cn3ccnc3)sc2C1 (configuration not stated) equals 7.70

###

Tested target: Thromboxane-A synthase (Oryctolagus cuniculus)
Assay procedure: Inhibition of thromboxane A2 synthetase
Measurement label: IC50 (nM)
Respond numerically; units are nM and should not be typed.

// sample O=C(O)C1CCc2cc(Cn3ccnc3)sc2C1 (stereo unspecified) , its IC50 was 26
